The reported numbers originate from patent US20260078130A1.

# system under test: human enzyme NAMPT (full length) (Homo sapiens, UniProt P43490)
# Construct: human enzyme NAMPT (full length)
# Sequence (P43490 whole entry): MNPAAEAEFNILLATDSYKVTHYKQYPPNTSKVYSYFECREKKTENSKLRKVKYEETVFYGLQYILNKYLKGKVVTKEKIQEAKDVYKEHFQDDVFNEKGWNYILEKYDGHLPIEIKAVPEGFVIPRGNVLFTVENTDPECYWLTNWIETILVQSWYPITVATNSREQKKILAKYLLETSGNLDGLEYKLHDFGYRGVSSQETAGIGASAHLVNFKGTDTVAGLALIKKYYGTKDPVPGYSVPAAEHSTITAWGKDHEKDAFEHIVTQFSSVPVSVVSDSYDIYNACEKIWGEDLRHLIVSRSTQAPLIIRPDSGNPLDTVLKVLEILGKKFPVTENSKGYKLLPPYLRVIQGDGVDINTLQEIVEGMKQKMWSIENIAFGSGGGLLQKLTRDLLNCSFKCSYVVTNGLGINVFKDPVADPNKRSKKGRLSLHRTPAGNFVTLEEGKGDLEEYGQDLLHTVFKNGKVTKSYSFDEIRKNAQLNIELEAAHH
# assay procedure: NMN fluorescence biochemical assay (stimulation of NMN synthesis by NAMPT)
# condition label: fold change of maximal activation compared to DMSO
# Description: Certain compounds described herein were assayed for their ability to stimulate the synthesis of nicotinamide mononucleotide (NMN) by human enzyme NAMPT (full length). […] Fluorescence (Ex/Em=382/445 nm) was measured using an Envision plate reader. The potency measurements for the test compounds were quantified and represented as EC50 (concentration of a compound that gives half-maximal activation) and Emax (fold change of a compound's maximal activation compared to DMSO).

molecule	Enzymatic Emax
COc1ccc(CN2C(=O)c3ccccc3C2Cc2c(Cl)ccc(=O)n2C)cn1 (centres unmarked)	B (3≥B>2)
Cn1ncc(Cl)c1CC1c2ccccc2C(=O)N1Cc1ccccc1 (centres unmarked)	C (2≥C)
O=C1c2ccccc2C(Cc2cccc3ncoc23)N1Cc1ccc2[nH]c(=O)oc2c1 (centres unmarked)	A (A>3)
Cn1ncc(Cl)c1CC1c2ccccc2C(=O)N1CC1CC2(CN=C(NC#N)O2)C1 (centres unmarked)	C (2≥C)
Cn1ncc(Cl)c1CC1c2ccccc2C(=O)N1C[C@]1(F)C[C@@]2(CNC(=O)O2)C1 (some centres unmarked)	B (3≥B>2)
Cc1cc(F)c2c(c1)C(Cc1c(Cl)cnn1C)N(CC1CC3(CNC(=O)O3)C1)C2=O (centres unmarked)	B (3≥B>2)
Cc1ccccc1CC1c2ccncc2C(=O)N1Cc1ccc2[nH]c(=O)oc2c1 (centres unmarked)	A (A>3)
Cn1ncc(Cl)c1CC1c2cccc(CC#N)c2C(=O)N1CC1CC2(CNC(=O)O2)C1 (centres unmarked)	B (3≥B>2)
